For each of the variants below, state its percent of parent.
B1: TMEM59 peptide (residues 268–280), wild type [modified: long spacer (Tds) at the N-terminal end, used for immobilisation; long spacer (Tds) at the N-terminal end, used for immobilisation] [not stated] / GST-HA-ATG16L1(231–607) … (parent)
chain 1: PLPVEQDDDIEVIVDETSDHTEETSPVRAISRAATKRLSQPAGGLLDSITNIFGRRSVSSFPVPQDNVDTHPGSGKEVRVPATALCVFDAHDGEVNAVQFSPGSRLLATGGMDRRVKLWEVFGEKCEFKGSLSGSNAGITSIEFDSAGSYLLAASNDFASRIWTVDDYRLRHTLTGHSGKVLSAKFLLDNARIVSGSHDRTLKLWDLRSKVCIKTVFAGSSCNDIVCTEQCVMSGHFDKKIRFWDIRSESIVREMELLGKITALDLNPERTELLSCSRDDLLKVIDLRTNAIKQTFSAPGFKCGSDWTRVVFSPDGSYVAAGSAEGSLYIWSVLTGKVEKVLSKQHSSSINAVAWSPSGSHVVSVDKGCKAVLWAQY
chain 2: YVPSEKLSIYGDL

Variants of: B1
Experiment: peptide microarray
Settings: with GST-HA-ATG16L1(231–607) [human]; ligand 800, 600, 400 nM; parent: 100
Reply numerically in % WT, unit not repeated.

Record chain 2 L7Y , field percent of parent: 87

percent of parent in this record for chain 2 L7I : 95

percent of parent for chain 2 P3M is 184

Lab book: percent of parent of chain 2 I9F noted as 159

Looking up chain 2 I9N , I see its percent of parent listed as 51

response.value for chain 2 S8T (field: percent of parent) = 67

Noted for chain 2 Y1A : its percent of parent reads 18

So, chain 2 K6P ? Its percent of parent was 3

chain 2 V2G has a reported percent of parent of 58

// data source = paper PMC7679444
